// cross-source set; read-out = pKi; system = Serine protease 1 (Homo sapiens)
Sequence (P07477 whole entry): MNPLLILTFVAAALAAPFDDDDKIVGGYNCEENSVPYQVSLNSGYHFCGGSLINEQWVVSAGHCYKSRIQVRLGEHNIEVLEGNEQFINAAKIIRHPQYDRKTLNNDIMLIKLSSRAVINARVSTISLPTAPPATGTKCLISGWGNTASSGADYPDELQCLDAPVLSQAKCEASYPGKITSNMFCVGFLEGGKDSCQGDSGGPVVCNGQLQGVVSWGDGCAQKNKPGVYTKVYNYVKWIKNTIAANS
pKi: −log10 of the molar value.
Quantity Measured: pKi

Data request: Recorded pKi of N=C(N)c1ccc(CNC(=O)CNC(=O)[C@@H](N)CO)cc1 , please.
Data returned: 5.15

Data request: Requested field: pKi. Item: N=C(N)Nc1ccc(CNC(=O)N2CCN(C(=O)O[C@H]3CCC[C@@H](OC(=O)N4CCN(C(=O)NCCC5CCNCC5)CC4)CCC3)CC2)cc1
Data returned: 3.92

Data request: If you can, please state the reported pKi value of N=C(N)Nc1ccc(CNC(=O)N2CCN(C(=O)O[C@H]3CCC[C@@H](OC(=O)N4CCN(C(=O)NC[C@H]5CC[C@@H](N)CC5)CC4)CCC3)CC2)cc1 .
Data returned: 3.77

Data request: Entry CN(CCC1CCNCC1)C(=O)N1CCN(C(=O)O[C@H]2CCC[C@@H](OC(=O)N3CCN(C(=O)NCc4ccc(NC(=N)N)cc4)CC3)CCC2)CC1 : reported pKi = ?
Data returned: 3.90

(A) N/C(=N\O)c1ccc(CN(NS(=O)(=O)c2ccc3ccccc3c2)C(=O)N2CCCCCC2)cc1
(B) CC1CCCCN1C(=O)N(Cc1ccc(C(=N)N)cc1)NS(=O)(=O)c1ccc2ccccc2c1 (stereo not drawn)
Data request: // pick min by pKi: A , B Your choice should be expressed through its label.
Data returned: B
(B: 4.59, A: 4.89)
